Examples of compounds with documented melting point follow.

CCOc1nc(Cl)nc(N(C)C)n1; 124 °C
CN(c1cccc2cc(C3=NCC(CC(=O)O)S3)[nH]c12)S(=O)(=O)c1ccccn1 (stereo not given); 231 to 233 °C
CC1NC(=O)NN=C1c1ccc(OCC(=O)NCCN2CCNCC2)c(Cl)c1 (stereo not given); 208 to 210 °C

Input: Data request, read-out melting point, for CN(C)CCN(CCC12CC3CC(CC(C3)C1)C2)C(=O)NCCCc1ccncc1
Output: 104 to 106 °C

Input: And what about the compound CCN(CC)S(=O)(=O)c1cc(O)c(N=Nc2c(C)nn(CC)c2O)c2ccccc12 ?
Output: 174 to 175 °C

====

Examples of compounds with documented melting point follow.

Worked examples follow.
CC(C)(C)c1ccc(C(=O)Nc2cn3c4c(ccc3n2)OCC4)cc1; 266 to 268 °C
Cc1cc(SCc2ccc(OCc3ccc(Cl)cc3Cl)cc2)ccc1OCC(=O)O; 101 to 103 °C
CCOC(=N)c1ccccc1-c1ccc(Cn2c(OCC)nc3cccc(C(=O)OC)c32)cc1; 105 to 106 °C
CN(C)C(=S)Oc1ccccc1C#N; 112 °C
Nc1nc(Cl)cc(CCl)n1; 126 to 128 °C

Input: Data request, read-out melting point, for COc1ccc(NC(=O)c2ccc(F)c(F)c2)cc1NCc1cccc(C(=O)O)c1
Output: 218 to 221 °C

Input: And what about the compound Cc1nn(-c2ccccn2)c2[nH]c3ccccc3c(=S)c12 ?
Output: 252 to 253 °C

Input: And what about the compound COC=C1CCC(c2ccc(C(=O)OC)cc2)CC1 (stereo unspecified) ?
Output: 58 °C

Input: And what about the compound N#Cc1cn(-c2ccc(C(F)(F)F)cc2)c(=O)[nH]c1=O ?
Output: 230 to 232 °C

Input: And what about the compound CC1(C)OC(=O)Nc2ccc(-c3coc(C=O)c3)cc21 ?
Output: 262 to 263 °C

Input: And what about the compound CCOC(=O)c1ncn2c1CN(C)C(=S)c1cc(F)ccc1-2 ?
Output: 157 to 159 °C

====

Examples of compounds with documented melting point follow.

Worked examples follow.
O=C1CCC(N2Cc3c(OCc4nc5cc(CN6CCOCC6)ccc5s4)cccc3C2=O)C(=O)N1 (stereo not given); 228 to 230 °C
Cc1cc(C)cc(NCc2ccc3nc(NC4CCN(CCO)CC4)n(Cc4nc(C)ccc4O)c3c2)c1; 144 °C
CCCCN1CCN(Cc2ccc(COc3cccc4c3CN(C3CCC(=O)NC3=O)C4=O)cc2)CC1=O (stereo not given); 138 to 140 °C
CCNC(=O)CCCC1CCN(Cc2cnc3cc(NC(=O)c4ccc(-c5ccc(F)cc5)cc4)c(C)cc3c2)CC1; 240 °C
CC(C)(C)c1ccc2nc3c(c(O)c2c1)CCCC3; 320 to 322 °C

Input: Data request, read-out melting point, for CCCCCCCc1ccc(-c2nc(C)c(C(C)=NNC(=N)N)s2)cc1
Output: 233 to 235 °C

Input: And what about the compound O=C(O)CC1CCOc2ccc(Cl)cc21 (stereo not given) ?
Output: 115 to 117 °C

Input: And what about the compound CC(=O)Nc1nc(CSc2ccc([N+](=O)[O-])cc2)cs1 ?
Output: 165 to 166 °C

Input: And what about the compound Cc1nc(-c2cc3c(OC[C@@H](O)CN4CCC(c5ccc6ccccc6c5)CC4)cccc3o2)no1 ?
Output: 146 to 148 °C

Input: And what about the compound CC1Nc2ccc(-c3csc(C#N)c3)cc2C(C)(C)O1 (stereo not given) ?
Output: 175 to 176 °C

Input: And what about the compound CSc1cc(C)nc(SC)c1NC(=O)CCCCCCCSc1nc2c(C)c(Cl)cc(C(C)C)c2o1 ?
Output: 128 to 131 °C

Input: And what about the compound CC(C)(Oc1ccc(N)cc1)C(=O)O ?
Output: 214 to 216 °C

====

property measured: melting point

COc1ncccc1-c1cccn2nc(Nc3ccc(C4CCN(C(=O)OC(C)(C)C)CC4)cc3)nc12; 101 to 103 °C
Cc1cc(C)cc(NCc2ccc3nc(NCCCN4CCCCC4)n(Cc4nc(C)ccc4O)c3c2)c1; 161 °C
COCCCNC(=O)c1ccc(C(=O)N2CCN(c3ncccc3NC(C)C)CC2)nc1; 95 to 96 °C
COc1cc(COc2ccc(N)nn2)c2ccccc2c1; 167 to 170 °C
OCCCNc1cc(-c2ccnc(Nc3cccc(C(F)(F)F)c3)n2)ccn1; 158 to 163 °C
CCc1cc(Cl)c2cccc(OC)c2n1; 80 to 81 °C
CCCS(=O)(=O)c1ccccc1S(N)(=O)=O; 122 to 124 °C
CN(C)CCCN1N=C2C(=Cc3ccccc3)CS(=O)(=O)CC2C1c1ccccc1 (stereo not given); 127 to 129 °C
COc1ccc(NCCNC(=O)c2ccc(OCC=C(C)CCC=C(C)C)cc2)nc1; 70.8 to 71.7 °C

Here is another compound to look at.
Input: Data request, read-out melting point, for CN(C)C(=O)Oc1cccc(-c2cc(=O)c3cc(N(C)C)ccc3o2)c1
Output: 167 to 168 °C

====

property measured: melting point

CC(=O)OCC1OC(ONc2ccc(C)cc2)C(OC(C)=O)C(OC(C)=O)C1OC(C)=O (stereo unspecified); 93 °C
Cc1cccc2c(C#N)csc12; 82 to 84 °C
O=c1c2c(F)cccc2nc2sccn12; 205 to 207 °C
CCCCCCC(=O)N1C(C)Cc2ccccc2C1CNC(=O)c1cc(OC)c(OC)c(OC)c1 (stereo unspecified); 161 to 163 °C
CCCCC1(C2CCCC2)Cc2cc(O)c(Cl)c(Cl)c2C1=O (stereo unspecified); 160 °C

Here is another compound to look at.
Input: Data request, read-out melting point, for Cn1c(C(=O)c2ccc(Cc3ccc(F)cc3)o2)c(O)c(=O)n1C
Output: 110 to 111 °C

====

Examples of compounds with documented melting point follow.

N#CCC(=O)Nc1ccccc1S; 198 to 201 °C

Input: Data request, read-out melting point, for OCc1ccc2cccc3c2c1-c1ccccc1-3
Output: 147 to 185 °C

Input: And what about the compound CCCP(=O)(CCC)Cc1ccc(NC(=O)/C=C/c2cccc(-c3ccc(C)cc3)c2)cc1 ?
Output: 225 to 227 °C

Input: And what about the compound CSc1sc(-c2cccnc2)c2c1-c1oncc1C(C)(C)C2 ?
Output: 123 to 125 °C

Input: And what about the compound O=C(CCCCN1CCN(c2cccc(Cl)c2Cl)CC1)N1CCc2ccccc21 ?
Output: 121 to 123 °C

Input: And what about the compound CCCc1c(OCCCCCOc2ccc3nc(CCC(=O)O)ccc3c2CCC(=O)O)ccc2c1OCCC2=O ?
Output: 123 to 128 °C

====

property measured: melting point

CCCCCCCCCCCCCCCC(=O)OCC(CO)CCn1cnc2c(=O)[nH]c(N)nc21 (stereo not given); 183 to 191 °C
ClC1c2ccccc2CSc2ccccc21 (stereo not given); 79 to 82 °C
COc1ccc(C[C@@H](C(=O)[C@H](Cc2ccc(OC)c(OC)c2)N2C(=O)c3ccccc3C2=O)N2C(=O)c3ccccc3C2=O)cc1OC; 126 to 128 °C
c1ccc2c(c1)CCC(n1cncn1)C21OCCO1 (stereo not given); 108 °C
Nc1cccc(-n2c(=O)c(CCC(O)c3ccncc3)cc3cccnc32)c1 (stereo not given); 209 to 211 °C
Cn1ncnc1COc1nc2c(cc1-c1ccccc1)nnn2-c1ccccc1; 153 to 156 °C
Cc1cc(C(=O)N2Cc3cccn3Cc3ccccc32)cc(C)c1-n1c(C)ccc1C; 104 to 106 °C
CCc1nccn1N=Cc1ccccc1; 67 to 68 °C

Input: Data request, read-out melting point, for N#CN=C(NCC(=O)O)Nc1cccc(Cl)c1
Output: 109 °C

Input: And what about the molecule CCn1ncc2c3noc(-c4ccc(C(F)(F)F)cc4)c3cnc21 ?
Output: 243 to 245 °C

====

property measured: melting point

CCOC(=O)C1=C(c2ccccc2)Nc2n[nH]cc2C1c1ccccc1Cl (stereo not given); 214 °C
Cc1oc(-c2ccccc2)nc1CCOc1ccc(CCc2nnn[nH]2)cc1; 143 to 144 °C
O=C1CN(Cc2ccccc2)C(=S)N1; 150 to 152 °C
OC[C@@H]1OC[C@H](n2c(NC3CC3)nc3cc(Cl)c(Cl)cc32)[C@@H](O)[C@H]1O; 164 °C

Here is another compound to look at.
Input: Data request, read-out melting point, for COc1cc(-c2nc(NCCC(=O)O)c3c(C)c(C#N)sc3n2)cc(OC)c1OC
Output: 222 to 225 °C

====

Examples of compounds with documented melting point follow.

CCCCCCCCCOc1ccc2c(c1)C(CCNC(=O)CCC)CC2 (configuration not stated); 53 to 55 °C

Input: Data request, read-out melting point, for Cc1nc(-n2cnn(Cc3ccc(OC(F)F)cc3)c2=O)sc1C(=O)NCc1cccnc1
Output: 151 to 152 °C

Input: And what about the compound Cc1c(C(=O)O)cc(O)c2cc(-c3ccc4c(c3)C(C)(C)CCC4(C)C)ccc12 ?
Output: 266 °C

Input: And what about the compound CCOC(=O)CCc1cc([N+](=O)[O-])ccc1O ?
Output: 199 to 200 °C
